Reference source: patent US6355799B1

# Tested on: large crabgrass (Digitaria sanguinalis, DIGSA)
# protocol description: Post-emerge test, greenhouse herbicide activity screening
# Type: in vivo
# test parameters: post-emerge, 63 g ai/ha, 14 days after application, rating scale 0-100
The entries below are paired with their reported phytotoxicity rating DIGSA.
measured parameter: phytotoxicity rating DIGSA

1. COc1c(Cl)cc(F)c(-n2c(=O)cc(C(F)(F)F)n(C)c2=O)c1NC(=O)c1ccc2c(c1)OCO2
30
2. COc1c(Cl)cc(F)c(-n2c(=O)cc(C(F)(F)F)n(C)c2=O)c1NC(=O)C(C)=Cc1ccccc1
20
3. COc1c(Cl)cc(F)c(-n2c(=O)cc(C(F)(F)F)n(C)c2=O)c1NC(=O)c1cccc(F)c1F
0
4. COc1c(Cl)cc(F)c(-n2c(=O)cc(C(F)(F)F)n(C)c2=O)c1NC(=O)c1cccc(Cl)c1
10
5. COc1c(Cl)cc(F)c(-n2c(=O)cc(C(F)(F)F)n(C)c2=O)c1NC(=O)c1ccc(Br)cc1
20
6. COc1c(Cl)cc(F)c(-n2c(=O)cc(C(F)(F)F)n(C)c2=O)c1NC(=O)C1CC1
30
7. COc1c(Cl)cc(F)c(-n2c(=O)cc(C(F)(F)F)n(C)c2=O)c1NC(=O)OCc1ccc(F)cc1
40
8. COc1c(Cl)cc(F)c(-n2c(=O)cc(C(F)(F)F)n(C)c2=O)c1NC(=O)OCc1cccc(F)c1
70
